Test system: MCF7
Experiment: Antiproliferative activity against human MCF7 cells after 24 hrs by MTT assay
Assay type: functional
Settings: MCF7, 24 h
Metric: GI50 (µM)

Worked set:
c1ccc(C2=NN(c3ccccc3)C(c3cccc4ccccc34)C2)cc1 (stereo not given)
3.29
NC(=S)N1N=C(c2ccccc2)CC1c1ccc2ccccc2c1 (stereo not given)
13.8
Cc1ccc(C2=NN(c3ccccc3)C(c3cccc4ccccc34)C2)cc1 (stereo not given)
0.74
COc1ccc(C2=NN(C(N)=S)C(c3cccc4ccccc34)C2)cc1 (stereo not given)
4.18
Cc1ccc(C2=NN(C(N)=S)C(c3cccc4ccccc34)C2)cc1 (stereo not given)
29.1

a = NC(=S)N1N=C(c2ccc(Br)cc2)CC1c1ccc2ccccc2c1 (stereo not given)
b = Fc1ccc(C2=NN(c3ccccc3)C(c3cccc4ccccc34)C2)cc1 (stereo not given)
c = NC(=S)N1N=C(c2ccc(Cl)cc2)CC1c1cccc2ccccc12 (stereo not given)
# input # sort list by recorded GI50, greatest to least Put the labels in the requested order and list them out.
# output c, b, a
(c: 11.2 µM, b: 2.68 µM, a: 0.44 µM)

1 = COc1ccc(C2=NN(c3ccccc3)C(c3cccc4ccccc34)C2)cc1 (stereo not given)
2 = COc1ccc(C2CC(c3ccc(C)c(C)c3)=NN2C(N)=S)cc1 (stereo not given)
# input Compare 1 and 2 and name the one whose reported GI50 is smaller. In your reply, give the label of the chosen option.
# output 1

====

Biological target: Receptor tyrosine-protein kinase erbB-2 (Homo sapiens)
Sequence (P04626 whole entry, the tested form may be a part): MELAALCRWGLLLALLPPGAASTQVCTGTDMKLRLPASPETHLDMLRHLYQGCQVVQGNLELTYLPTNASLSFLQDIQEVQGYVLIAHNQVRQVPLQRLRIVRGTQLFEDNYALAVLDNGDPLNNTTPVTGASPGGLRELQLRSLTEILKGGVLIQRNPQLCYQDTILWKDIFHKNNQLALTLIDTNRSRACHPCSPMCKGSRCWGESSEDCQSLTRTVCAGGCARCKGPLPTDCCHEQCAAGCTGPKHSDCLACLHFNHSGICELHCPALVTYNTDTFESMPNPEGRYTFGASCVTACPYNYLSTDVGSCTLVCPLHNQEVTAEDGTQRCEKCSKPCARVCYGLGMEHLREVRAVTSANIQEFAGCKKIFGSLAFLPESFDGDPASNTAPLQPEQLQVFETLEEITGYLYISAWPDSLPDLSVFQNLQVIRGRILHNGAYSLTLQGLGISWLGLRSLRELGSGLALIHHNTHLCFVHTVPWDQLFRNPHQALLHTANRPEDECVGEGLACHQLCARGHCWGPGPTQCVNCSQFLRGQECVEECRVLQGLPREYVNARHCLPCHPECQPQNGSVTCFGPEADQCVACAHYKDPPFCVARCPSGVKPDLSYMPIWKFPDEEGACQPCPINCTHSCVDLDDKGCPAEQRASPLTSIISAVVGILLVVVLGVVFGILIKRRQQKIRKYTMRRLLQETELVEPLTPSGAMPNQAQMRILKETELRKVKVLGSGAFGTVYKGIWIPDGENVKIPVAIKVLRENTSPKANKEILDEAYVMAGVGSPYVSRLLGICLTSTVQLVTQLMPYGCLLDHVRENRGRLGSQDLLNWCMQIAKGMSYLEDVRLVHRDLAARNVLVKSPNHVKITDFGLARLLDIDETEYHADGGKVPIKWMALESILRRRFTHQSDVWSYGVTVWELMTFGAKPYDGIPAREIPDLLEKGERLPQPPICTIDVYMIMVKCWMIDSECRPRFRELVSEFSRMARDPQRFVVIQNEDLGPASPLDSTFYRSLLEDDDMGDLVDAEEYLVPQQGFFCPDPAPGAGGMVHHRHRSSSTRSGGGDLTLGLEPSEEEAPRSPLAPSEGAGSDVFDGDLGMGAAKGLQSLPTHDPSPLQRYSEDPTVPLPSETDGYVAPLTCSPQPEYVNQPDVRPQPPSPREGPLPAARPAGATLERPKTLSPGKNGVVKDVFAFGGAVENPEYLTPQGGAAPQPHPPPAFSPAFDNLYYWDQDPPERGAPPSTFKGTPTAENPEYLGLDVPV
Test: Inhibition of human recombinant HER-2 cytoplasmic domain (676 to 1245) autophosphorylation after 1 hr
Metric: IC50 (nM)

NC(=S)N1N=C(c2ccc(Cl)c(Cl)c2)CC1c1ccc(O)cc1 (stereo not given)
6580
NC(=S)N1N=C(c2ccccc2)CC1c1cccc2ccccc12 (stereo not given)
7240
COc1ccc(C2=NN(c3ccccc3)C(c3ccc4ccccc4c3)C2)cc1 (stereo not given)
1450
c1ccc(C2=NN(c3ccccc3)C(c3cccc4ccccc34)C2)cc1 (stereo not given)
3830

1 = Clc1ccc(C2=NN(c3ccccc3)C(c3ccc4ccccc4c3)C2)cc1Cl (stereo not given)
2 = Fc1ccc(C2=NN(c3ccccc3)C(c3ccc4ccccc4c3)C2)cc1 (stereo not given)
# input Which is greater in IC50, the first item 1 or the second item 2 ? Your choice should be expressed through its label.
# output 2

P = COc1ccc(C2=NN(c3ccccc3)C(c3cccc4ccccc34)C2)cc1 (stereo not given)
Q = NC(=S)N1N=C(c2ccc(F)cc2)CC1c1ccc2ccccc2c1 (stereo not given)
# input Which gives the smaller IC50 number: P or Q ? Mark your selection by writing its label.
# output Q
(Q: 1750 nM, P: 3010 nM)

====

Biological target: Receptor tyrosine-protein kinase erbB-3 (Homo sapiens, UniProt P21860)
Sequence (P21860 whole entry, the tested form may be a part): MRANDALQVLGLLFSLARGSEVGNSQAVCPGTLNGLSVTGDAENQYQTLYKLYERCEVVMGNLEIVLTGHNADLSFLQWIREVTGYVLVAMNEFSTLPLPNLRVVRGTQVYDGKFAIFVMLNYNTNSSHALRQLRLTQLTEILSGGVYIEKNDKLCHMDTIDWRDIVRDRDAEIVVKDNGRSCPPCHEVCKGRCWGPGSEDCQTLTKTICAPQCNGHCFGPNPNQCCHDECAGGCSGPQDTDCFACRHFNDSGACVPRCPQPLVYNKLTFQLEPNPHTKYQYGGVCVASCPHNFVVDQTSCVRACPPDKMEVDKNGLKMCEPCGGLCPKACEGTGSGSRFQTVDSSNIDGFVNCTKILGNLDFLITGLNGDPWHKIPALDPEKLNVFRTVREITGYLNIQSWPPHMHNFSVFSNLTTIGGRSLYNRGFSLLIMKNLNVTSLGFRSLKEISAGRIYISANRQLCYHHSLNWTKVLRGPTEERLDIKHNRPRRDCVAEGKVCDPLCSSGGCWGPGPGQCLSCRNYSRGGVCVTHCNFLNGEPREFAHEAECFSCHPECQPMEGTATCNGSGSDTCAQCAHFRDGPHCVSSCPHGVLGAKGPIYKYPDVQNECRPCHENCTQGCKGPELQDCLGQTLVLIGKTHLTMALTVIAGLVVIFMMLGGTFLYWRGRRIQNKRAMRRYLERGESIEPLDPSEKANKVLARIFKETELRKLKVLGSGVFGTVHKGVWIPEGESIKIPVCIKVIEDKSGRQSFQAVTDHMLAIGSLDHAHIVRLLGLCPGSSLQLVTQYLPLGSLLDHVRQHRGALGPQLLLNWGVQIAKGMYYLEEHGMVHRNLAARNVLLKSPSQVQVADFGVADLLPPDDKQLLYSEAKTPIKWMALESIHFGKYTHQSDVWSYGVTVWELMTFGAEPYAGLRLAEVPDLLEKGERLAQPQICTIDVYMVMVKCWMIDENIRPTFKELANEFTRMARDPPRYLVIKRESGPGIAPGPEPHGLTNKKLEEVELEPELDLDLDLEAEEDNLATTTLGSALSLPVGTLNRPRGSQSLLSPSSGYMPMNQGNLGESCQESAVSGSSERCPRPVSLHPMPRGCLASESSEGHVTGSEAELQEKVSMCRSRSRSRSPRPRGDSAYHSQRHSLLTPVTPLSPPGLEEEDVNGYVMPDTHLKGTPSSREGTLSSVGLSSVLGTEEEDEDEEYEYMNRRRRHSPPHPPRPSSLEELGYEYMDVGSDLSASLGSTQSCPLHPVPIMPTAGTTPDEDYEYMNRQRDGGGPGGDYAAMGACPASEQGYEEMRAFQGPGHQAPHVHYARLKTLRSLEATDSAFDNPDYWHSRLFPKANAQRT
Assay: Inhibition of human recombinant HER-3 cytoplasmic domain (665 to 1339) autophosphorylation after 1 hr
pIC50: −log10 of the molar value.
Metric: pIC50

Known pIC50 results, listed for orientation:
COc1ccc(C2=NN(c3ccccc3)C(c3cccc4ccccc34)C2)cc1 (stereo unspecified)
4.40
Cc1ccc(C2=NN(c3ccccc3)C(c3ccc4ccccc4c3)C2)cc1 (stereo unspecified)
4.34
COc1ccc(C2=NN(C(N)=S)C(c3cccc4ccccc34)C2)cc1 (stereo unspecified)
4.25
NC(=S)N1N=C(c2ccc(Cl)c(Cl)c2)CC1c1ccc2ccccc2c1 (stereo unspecified)
4.29

A = Clc1ccc(C2=NN(c3ccccc3)C(c3ccc4ccccc4c3)C2)cc1Cl (stereo unspecified)
B = Cc1ccc(C2=NN(C(N)=S)C(c3ccc4ccccc4c3)C2)cc1 (stereo unspecified)
# input Given the two records A and B , choose the one whose pIC50 value is lower. Reply with the label of the item you choose.
# output B
(B: 4.20, A: 4.44)
